MEASUREMENT NOTES: in vivo
SETUP CONDITIONS: mouse
OBSERVABLE: half-life

MOLECULAR STRING	VAL
CCC(CC)COC(=O)[C@H](C)N[P@](=O)(OC[C@H]1O[C@@](C#N)(c2ccc3c(N)ncnn23)[C@H](O)[C@@H]1O)Oc1ccccc1	25 min

###

MEASUREMENT NOTES: in vivo
SETUP CONDITIONS: rhesus monkey, serum, iv

MOLECULAR STRING	half-life (min)
CCC(CC)COC(=O)[C@H](C)N[P@](=O)(OC[C@H]1O[C@@](C#N)(c2ccc3c(N)ncnn23)[C@H](O)[C@@H]1O)Oc1ccccc1	24
